- assaySystem: MC-3 (Homo sapiens, UniProt P41968)
- Sequence (P41968 whole entry): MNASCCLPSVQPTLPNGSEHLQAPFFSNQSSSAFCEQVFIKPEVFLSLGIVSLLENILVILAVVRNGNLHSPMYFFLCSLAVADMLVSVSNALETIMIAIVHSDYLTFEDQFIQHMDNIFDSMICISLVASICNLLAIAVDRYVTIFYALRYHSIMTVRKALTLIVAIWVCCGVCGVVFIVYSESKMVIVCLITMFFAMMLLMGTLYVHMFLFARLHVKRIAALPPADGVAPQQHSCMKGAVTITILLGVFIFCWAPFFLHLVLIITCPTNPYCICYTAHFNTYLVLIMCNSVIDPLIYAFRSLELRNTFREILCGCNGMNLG
- methodDescription: cAMP assay for melanocortin receptors, HEK 293 cells expressing MC-3
- testSettings: concentration for 50% of the maximum increase by that ligand
pEC50: −log10 of the molar value.
measuredQuantity: pEC50

Some molecules with recorded pEC50:
CC(C)(C)c1ccc(-c2nc3cc(C(=O)N(CCc4ccccc4)Cc4cccnc4)ccc3n2[C@@H](CCCNC(=N)N)C(N)=O)cc1	5.33
CCCCCc1ccc(-c2nc3cc(C(=O)N(CCc4ccccc4)Cc4ccccc4)ccc3n2[C@@H](CCCNC(=N)N)C(N)=O)cc1	5.63

a: CC(C)c1ccc(-c2nc3cc(C(=O)N(CCc4ccccc4)Cc4ccccc4)ccc3n2C(CCCNC(=N)N)C(N)=O)cc1 (stereo not drawn)
b: CCCCOc1ccc(-c2nc3cc(C(=O)N(CCc4ccccc4)Cc4cccnc4)ccc3n2[C@@H](CCCNC(=N)N)C(N)=O)cc1
c: CC(C)(C)c1ccc(-c2nc3cc(C(=O)NC(Cc4ccccc4)c4ccccc4)ccc3n2C(CCCNC(=N)N)C(N)=O)cc1 (stereo not drawn)
Arrange the 3 molecules from largest to smallest pEC50. In plain terms: list the labels in the order you were asked to.
a, b, c
(a: 5.77, b: 5.44, c: 5.17)

---

- assaySystem: MC-1 (Homo sapiens)
- Sequence (Q01726 whole entry): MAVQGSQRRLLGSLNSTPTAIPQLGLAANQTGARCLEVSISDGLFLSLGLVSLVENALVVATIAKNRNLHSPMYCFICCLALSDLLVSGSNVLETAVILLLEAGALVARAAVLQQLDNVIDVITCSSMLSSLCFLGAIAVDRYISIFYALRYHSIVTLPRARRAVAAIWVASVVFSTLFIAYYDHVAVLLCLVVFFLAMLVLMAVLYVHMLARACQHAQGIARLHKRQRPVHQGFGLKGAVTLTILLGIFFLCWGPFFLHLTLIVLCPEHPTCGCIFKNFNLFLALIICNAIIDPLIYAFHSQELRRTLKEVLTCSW
- methodDescription: cAMP assay for melanocortin receptors, HEK 293 cells expressing MC-1
- testSettings: concentration for 50% of the maximum increase by that ligand
measuredQuantity: EC50 (nM)

Some compounds with recorded EC50:
CC(C)(C)c1ccc(-c2nc3cc(C(=O)NC(Cc4ccccc4)c4ccccc4)ccc3n2C(CCCNC(=N)N)C(N)=O)cc1 (stereo not shown)	430
CC(C)(C)c1ccc(-c2nc3cc(C(=O)N(CCc4ccccc4)Cc4ccccc4)ccc3n2C(CCCNC(=N)N)C(N)=O)cc1 (stereo not shown)	470

1: CC(C)(C)c1ccc(-c2nc3cc(C(=O)N4CC=C(c5ccc(Cl)cc5)CC4)ccc3n2[C@@H](CCCNC(=N)N)C(N)=O)cc1
2: CC(C)(C)c1ccc(-c2nc3cc(C(=O)N(CCc4ccccc4)Cc4cccnc4)ccc3n2[C@@H](CCCNC(=N)N)C(N)=O)cc1
Quick check, higher EC50 between 1 and 2 ? To answer, give the label that identifies your chosen option.
1
(1: 380 nM, 2: 220 nM)
